test system: Staphylococcus aureus ATCC 25923
QUANTITY NAME: MIC (µM)
Give just the number in µM; leave the unit off.

Answered examples (2):
CC(C)[C@H](NC(=O)[C@H](CCCCN)NC(=O)[C@H](Cc1c[nH]c2ccccc12)NC(=O)[C@H](CCCCN)NC(=O)[C@@H](NC(=O)[C@H](CCCCN)NC(=O)[C@H](Cc1c[nH]c2ccccc12)NC(=O)[C@H](CCCCN)NC(=O)[C@@H](NC(=O)[C@H](CCCCN)NC(=O)[C@@H](N)Cc1c[nH]c2ccccc12)C(C)C)C(C)C)C(=O)N[C@@H](CCCCN)C(N)=O; 2
CC[C@H](C)[C@H](NC(=O)[C@H](CCCCN)NC(=O)[C@H](CCCCN)NC(=O)[C@@H](NC(=O)[C@@H](NC(=O)[C@H](CC(=O)O)NC(=O)[C@H](Cc1ccccc1)NC(=O)[C@H](CC(C)C)NC(=O)CN)[C@@H](C)CC)[C@@H](C)CC)C(=O)N[C@@H](C)C(=O)N[C@@H](CCC(=O)O)C(=O)N[C@@H](C)C(=O)N[C@@H](Cc1ccccc1)C(N)=O; 21.8

State, for Staphylococcus aureus ATCC 25923, measured MIC of the compound listed here: `CC[C@H](C)[C@H](NC(=O)[C@H](CCCN=C(N)N)NC(=O)CNC(=O)[C@H](CC(C)C)NC(=O)[C@H](Cc1ccccc1)NC(=O)[C@H](CCCCN)NC(=O)[C@H](CO)NC(=O)[C@H](Cc1ccccc1)NC(=O)[C@H](Cc1c[nH]c2ccccc12)NC(=O)[C@@H]1CCCN1C(=O)[C@@H](NC(=O)[C@@H](N)Cc1ccccc1)C(C)C)C(=O)N[C@@H](CC(C)C)C(N)=O`
3

---

system: Staphylococcus aureus ATCC 2592
QUANTITY NAME: MIC (µM)
Give just the number in µM; leave the unit off.

Answered examples (4):
CC[C@H](C)[C@H](N)C(=O)N[C@@H](CC(C)C)C(=O)NCC(=O)N1CCC[C@H]1C(=O)N[C@H](C(=O)N[C@@H](CC(C)C)C(=O)NCC(=O)N[C@@H](CC(C)C)C(=O)N[C@H](C(=O)NCC(=O)N[C@@H](CC(N)=O)C(=O)N[C@@H](C)C(=O)N[C@@H](CC(C)C)C(=O)NCC(=O)NCC(=O)N[C@@H](CC(C)C)C(=O)N[C@H](C(=O)N[C@@H](CCCCN)C(=O)N[C@@H](CCCCN)C(=O)N[C@H](C(N)=O)[C@@H](C)CC)[C@@H](C)CC)C(C)C)C(C)C; 5.14
CC[C@H](C)[C@H](NC(=O)[C@H](CCCCN)NC(=O)[C@@H]1CCCN1C(=O)[C@H](CC(C)C)NC(=O)[C@H](Cc1ccccc1)NC(=O)[C@H](CC(C)C)NC(=O)[C@@H]1CCCN1C(=O)[C@H](CC(C)C)NC(=O)[C@@H](N)Cc1ccccc1)C(=O)N[C@H](C(=O)N[C@H]1CSSC[C@@H](C(=O)O)NC(=O)[C@H](CCCCN)NC(=O)[C@H](CCCCN)NC(=O)[C@H]([C@@H](C)O)NC(=O)[C@H]([C@@H](C)CC)NC(=O)[C@H](C(C)C)NC1=O)[C@@H](C)CC; 2.38
CC[C@H](C)[C@H](NC(=O)[C@@H](NC(=O)[C@@H]1CCCN1C(=O)[C@H](CC(C)C)NC(=O)[C@@H](N)Cc1ccccc1)[C@@H](C)CC)C(=O)N[C@@H](C)C(=O)N[C@@H](CCCCN)C(=O)N[C@@H](CC(C)C)C(=O)N[C@@H](CC(C)C)C(=O)NCC(=O)NCC(=O)N[C@@H](CC(C)C)C(=O)N[C@@H](CC(C)C)C(N)=O; 3.66
CC[C@H](C)[C@H](NC(=O)[C@H](CCCCN)NC(=O)[C@H](CC(C)C)NC(=O)[C@H](Cc1ccccc1)NC(=O)[C@H](CO)NC(=O)[C@H](CC(C)C)NC(=O)[C@H](Cc1ccccc1)NC(=O)[C@H](CCCN=C(N)N)NC(=O)[C@H](CO)NC(=O)[C@H](CC(C)C)NC(=O)[C@@H](N)CO)C(=O)N[C@H](C(=O)N[C@@H](Cc1ccc(O)cc1)C(=O)N1CCC[C@H]1C(=O)N1CCC[C@H]1C(=O)N[C@@H](C)C(=O)N[C@@H](Cc1ccccc1)C(N)=O)C(C)C; 25.2

State, for Staphylococcus aureus ATCC 2592, measured MIC of the compound listed here: `CC[C@H](C)[C@H](NC(=O)CNC(=O)[C@H](CO)NC(=O)[C@H](CC(C)C)NC(=O)[C@H](CC(C)C)NC(=O)CN)C(=O)N[C@@H](CC(C)C)C(=O)NCC(=O)N[C@@H](C)C(=O)NCC(=O)N[C@@H](CCCCN)C(=O)N[C@@H](CC(N)=O)C(=O)N[C@H](C(=O)N[C@H](C(=O)N[C@H]1CSSC[C@@H](C(=O)O)NC(=O)[C@H](CC(C)C)NC(=O)CNC(=O)[C@H](CO)NC(=O)[C@H](CC(C)C)NC(=O)CNC1=O)C(C)C)[C@@H](C)CC`
1.29

---

tested on: Escherichia coli K88
QUANTITY NAME: MIC

State, for Escherichia coli K88, measured MIC of the molecule listed here: CC[C@H](C)[C@H](N)C(=O)N[C@@H](Cc1cnc[nH]1)C(=O)N[C@@H](Cc1cnc[nH]1)C(=O)N[C@H](C(=O)N[C@@H](Cc1cnc[nH]1)C(=O)N[C@@H](Cc1cnc[nH]1)C(=O)N[C@@H](Cc1cnc[nH]1)C(N)=O)[C@@H](C)CC [IHHIHHH]
≥ 64 µM

---

Staphylococcus aureus ATCC 25923: recorded MIC for assorted compounds

Answered examples (2):
CC[C@H](C)[C@H](NC(=O)CN)C(=O)NCC(=O)NCC(=O)N[C@@H](C)C(=O)N[C@@H](CC(C)C)C(=O)N[C@@H](CC(C)C)C(=O)N[C@@H](CO)C(=O)N[C@@H](C)C(=O)NCC(=O)N[C@@H](CCCCN)C(=O)N[C@@H](C)C(=O)N[C@@H](C)C(=O)N[C@@H](CC(C)C)C(=O)N[C@@H](CCCCN)C(=O)NCC(=O)N[C@@H](CC(C)C)C(=O)N[C@@H](C)C(=O)N[C@@H](CCCCN)C(=O)N[C@H](C(=O)N[C@@H](CC(C)C)C(=O)N[C@H](C(N)=O)C(C)C)C(C)C [GIGGALLSAGKAALKGLAKVLV]; 4.68 µM
CC(C)C[C@H](NC(=O)[C@H](CCCN=C(N)N)NC(=O)[C@H](CCCCN)NC(=O)[C@H](CCCN=C(N)N)NC(=O)[C@@H](NC(=O)[C@H](CCCCN)NC(=O)[C@H](CCCCN)NC(=O)[C@H](CCCN=C(N)N)NC(=O)[C@H](CC(C)C)NC(=O)[C@H](CCCN=C(N)N)NC(=O)[C@@H](N)CCCN=C(N)N)[C@@H](C)O)C(=O)N[C@@H](CCCCN)C(N)=O [RRLRKKTRKRLK]; > 128 µM

// next entry
State, for Staphylococcus aureus ATCC 25923, measured MIC of the compound listed here: CC[C@H](C)[C@H](NC(=O)CNC(=O)[C@H](CCCCN)NC(=O)[C@H](C)NC(=O)[C@@H](NC(=O)[C@H](CCCCN)NC(=O)[C@@H](N)CC(C)C)[C@@H](C)CC)C(=O)N[C@H](C(=O)N[C@@H](CCCCN)C(=O)N[C@@H](CO)C(=O)N[C@@H](CC(C)C)C(=O)O)[C@@H](C)CC [LKIAKGIIKSL]
> 84.5 µM

---

system: Salmonella enterica subsp. enterica serovar Typhimurium C77-31
QUANTITY NAME: MIC

Give me measured MIC, please, for this compound: NC(=O)[C@@H]1CCCN1C(=O)[C@H](CCCN=C(N)N)NC(=O)[C@H](CS)NC(=O)[C@H](Cc1ccccc1)NC(=O)[C@H](CCCN=C(N)N)NC(=O)[C@H](CCCN=C(N)N)NC(=O)[C@H](CCCN=C(N)N)NC(=O)[C@H](CS)NC(=O)[C@H](CCCN=C(N)N)NC(=O)[C@@H]1CCCN1 [PRCRRRFCRP]
≥ 128 µM

Give me measured MIC, please, for this compound: NC(=O)[C@H](CCCN=C(N)N)NC(=O)[C@H](CCCN=C(N)N)NC(=O)[C@H](Cc1c[nH]c2ccccc12)NC(=O)[C@H](Cc1c[nH]c2ccccc12)NC(=O)[C@H](Cc1c[nH]c2ccccc12)NC(=O)[C@@H](N)CCCN=C(N)N [RWWWRR]
≥ 64 µM

Give me measured MIC, please, for this compound: CC[C@H](C)[C@H](NC(=O)[C@H](Cc1c[nH]c2ccccc12)NC(=O)[C@H](CCCCN)NC(=O)[C@H](Cc1c[nH]c2ccccc12)NC(=O)[C@@H](NC(=O)[C@H](CCCCN)NC(=O)CNC(=O)[C@@H](NC(=O)[C@H](CCCCN)NC(=O)[C@H](CCCCN)NC(=O)[C@H](Cc1c[nH]c2ccccc12)NC(=O)[C@@H](N)CCCN=C(N)N)[C@@H](C)CC)C(C)C)C(N)=O [RWKKIGKVWKWI]
≥ 32 µM
